# Tested on: bovine articular cartilage treated with Interleukin 1 alpha (IL-1α)
# Test protocol: Bovine articular cartilage explant cultures: inhibition of degradation of proteoglycan
# Assay type: cell-based
# Test parameters: Table 1, second of two columns headed bovine; inhibitory effect expressed as percentage; concentration not printed
Reported metric: bovine (%)
Just the number in %, nothing appended.

Q. Which bovine is listed for COc1ccc(CCNC(=O)[C@H](CCC(=O)O)NC(=O)c2ccc(-c3ccccc3)cc2)cc1 ?
A. 17

Q. Also CCCCNC(=O)[C@H](CCC(=O)O)NC(=O)c1ccc(-c2ccccc2)cc1 ?
A. 34

Q. Also O=C(O)CC[C@H](NC(=O)c1ccc(-c2ccco2)cc1)C(=O)NCc1ccccc1 [Example 12A] ?
A. 18

Q. Also O=C(O)CC[C@H](NC(=O)c1ccc(-c2ccccc2)cc1)C(=O)NCc1ccc(OC(F)(F)F)cc1 ?
A. 20

Q. Also CCCCCCCNC(=O)[C@H](CCC(=O)O)NC(=O)c1ccc(-c2ccccc2)cc1 ?
A. 26

Q. Also COc1ccc(CCNC(=O)[C@H](CCC(=O)O)NC(=O)c2ccc(-c3ccccc3)cc2)cc1OC ?
A. 79

Q. Also O=C(O)CC[C@H](NC(=O)c1ccc(-c2ccccc2)cc1)C(=O)NC1CCCCC1 ?
A. 29

Q. Also O=C(O)CC[C@H](NC(=O)c1ccc(-c2ccccc2)cc1)C(=O)NCc1ccc(I)cc1 ?
A. 0

Q. Also O=C(O)CC[C@H](NC(=O)c1ccc(-c2ccccc2)cc1)C(=O)NC1CCCCCCC1 ?
A. 34

Q. Also CC(C)(Cc1ccc(F)cc1)NC(=O)[C@H](CCC(=O)O)NC(=O)c1ccc(-c2ccccc2)cc1 ?
A. 40

Q. Also O=C(O)CC[C@H](NC(=O)c1ccc(-c2ccccc2)cc1)C(=O)NCc1ccc2c(c1)OCO2 ?
A. 28

Q. Also O=C(O)CC[C@H](NC(=O)c1ccc(-c2ccccc2)cc1)C(=O)NCCCc1ccccc1 ?
A. 50

Q. Also CN(C)c1ccc(CNC(=O)[C@H](CCC(=O)O)NC(=O)c2ccc(-c3ccccc3)cc2)cc1 ?
A. 34

Q. Also O=C(O)CC[C@H](NC(=O)c1ccc(-c2ccccc2)cc1)C(=O)NCc1cccc(-c2cccs2)c1 [Example 10N] ?
A. 24

Q. Also C=Cc1ccc(CNC(=O)[C@H](CCC(=O)O)NC(=O)c2ccc(-c3ccccc3)cc2)cc1 [Example 10R] ?
A. 0

Q. Also O=C(O)CC[C@H](NC(=O)c1ccc(-c2ccccc2)cc1)C(=O)NCc1cccc(OC(F)(F)F)c1 ?
A. 26

* * *

# Study system: purified recombinant human Aggrecanase-1 (rAgg1) (Homo sapiens, UniProt O75173)
# Sequence (O75173 213-837): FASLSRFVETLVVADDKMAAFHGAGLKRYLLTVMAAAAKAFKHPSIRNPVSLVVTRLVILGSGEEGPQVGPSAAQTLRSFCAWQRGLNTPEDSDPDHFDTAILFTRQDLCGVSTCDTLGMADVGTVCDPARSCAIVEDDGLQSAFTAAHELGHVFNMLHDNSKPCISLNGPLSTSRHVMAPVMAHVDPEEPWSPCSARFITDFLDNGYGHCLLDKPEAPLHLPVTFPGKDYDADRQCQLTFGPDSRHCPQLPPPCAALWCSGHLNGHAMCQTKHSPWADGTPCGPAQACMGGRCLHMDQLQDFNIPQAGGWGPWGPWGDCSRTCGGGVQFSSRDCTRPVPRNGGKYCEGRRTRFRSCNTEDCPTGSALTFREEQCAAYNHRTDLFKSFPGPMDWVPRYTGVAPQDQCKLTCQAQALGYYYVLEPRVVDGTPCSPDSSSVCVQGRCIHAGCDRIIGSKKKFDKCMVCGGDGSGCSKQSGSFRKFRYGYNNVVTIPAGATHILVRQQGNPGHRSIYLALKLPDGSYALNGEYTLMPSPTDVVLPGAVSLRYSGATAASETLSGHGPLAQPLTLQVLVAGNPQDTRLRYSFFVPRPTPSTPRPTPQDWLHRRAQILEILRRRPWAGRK
# Test protocol: In vitro fluorescence screen for Aggrecanase-1 inhibitors
# Assay type: biochemical
# Test parameters: Table 1; read-out: Agg1 IC50
Reported metric: IC50 (µM)
Just the number in µM, nothing appended.

Q. Which IC50 is listed for CC(C)(C)NC(=O)[C@H](CCC(=O)O)NC(=O)c1ccc(-c2ccccc2)cc1 ?
A. 0.064

Q. Also COc1cccc(CCNC(=O)[C@H](CCC(=O)O)NC(=O)c2ccc(-c3ccccc3)cc2)c1 ?
A. 0.1

Q. Also C=CCOc1ccc(-c2ccc(C(=O)N[C@@H](CCC(=O)O)C(=O)NCc3ccccc3)cc2)cc1 [Example 15E] ?
A. 3.5

Q. Also COc1ccc(CCNC(=O)[C@H](CCC(=O)O)NC(=O)c2ccc(-c3ccccc3)cc2)cc1 ?
A. 0.12

Q. Also Nc1ccc(CNC(=O)[C@H](CCC(=O)O)NC(=O)c2ccc(-c3ccccc3)cc2)cc1 ?
A. 0.1

Q. Also O=C(O)CC[C@H](NC(=O)c1ccc(-c2ccccc2)cc1)C(=O)NCCc1cccc(Cl)c1 ?
A. 0.53

Q. Also O=C(O)CC[C@H](NC(=O)c1ccc(-c2ccccc2)cc1)C(=O)Nc1ccccc1Cc1ccccc1 ?
A. 0.69
